biological target: GlcNAc(a1-4)Gal(b1-4)GlcNAc(b1-3)Gal(b1-4)GlcNAc; assay: glycan array binding signal (z-score within array); higher = stronger binding; details: glycan notation: IUPAC condensed, linker removed
The entries come from a sample that favours the strongest signals as a whole.
Below is a list of entries, each paired with its recorded glycan array binding signal (z-score) value.
Number, no unit, nothing else.

AFL6 (Aspergillus fumigatus), Q4WKJ1 (protein) MSFHLTAEDIRIEDGHRLVARLRNADGDLQDASIDLNTCLGNDNGHFQWDGVDFSHSAQDVHFAIEGGGQVPVLRAQLANQDGEFQDADVNLSERIENINGEFVFH :: 3.58
F17aG (Escherichia coli), Q99003 (protein) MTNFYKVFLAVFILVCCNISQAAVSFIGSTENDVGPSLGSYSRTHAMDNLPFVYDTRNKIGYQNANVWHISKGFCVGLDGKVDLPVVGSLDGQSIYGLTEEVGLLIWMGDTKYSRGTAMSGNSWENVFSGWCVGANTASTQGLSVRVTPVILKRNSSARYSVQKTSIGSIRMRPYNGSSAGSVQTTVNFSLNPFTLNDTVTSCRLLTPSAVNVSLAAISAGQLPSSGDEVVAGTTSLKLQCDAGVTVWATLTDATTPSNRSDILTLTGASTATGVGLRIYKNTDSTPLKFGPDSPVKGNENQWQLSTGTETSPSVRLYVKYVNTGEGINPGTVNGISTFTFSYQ :: -0.182
3FTT (Staphylococcus aureus), Q5HCZ5 (protein) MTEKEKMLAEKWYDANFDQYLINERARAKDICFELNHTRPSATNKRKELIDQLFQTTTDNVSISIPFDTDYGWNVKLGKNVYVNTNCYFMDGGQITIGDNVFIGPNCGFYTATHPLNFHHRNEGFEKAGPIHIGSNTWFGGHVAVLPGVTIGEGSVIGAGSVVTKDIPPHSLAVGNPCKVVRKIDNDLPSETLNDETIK :: 0.607

--- query ---
Param item = SSR1 (Sclerotium rolfsii), A0A0M3KL30 (protein) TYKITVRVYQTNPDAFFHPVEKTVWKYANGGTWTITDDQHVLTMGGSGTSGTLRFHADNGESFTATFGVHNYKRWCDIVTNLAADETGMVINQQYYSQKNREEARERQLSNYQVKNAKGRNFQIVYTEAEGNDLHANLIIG ; retrieve measured glycan array binding signal (z-score).
4.43

The reported measurements were obtained from the supplement of paper PMC8728848.
